The origin of these recorded values is ChEMBL document CHEMBL1201862.

tested system: Cytochrome P450 1A2 (Homo sapiens, UniProt P05177);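 note: PubChem cytochrome P450 panel assay, CYP1A2 panel member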
Sequence (P05177 whole entry): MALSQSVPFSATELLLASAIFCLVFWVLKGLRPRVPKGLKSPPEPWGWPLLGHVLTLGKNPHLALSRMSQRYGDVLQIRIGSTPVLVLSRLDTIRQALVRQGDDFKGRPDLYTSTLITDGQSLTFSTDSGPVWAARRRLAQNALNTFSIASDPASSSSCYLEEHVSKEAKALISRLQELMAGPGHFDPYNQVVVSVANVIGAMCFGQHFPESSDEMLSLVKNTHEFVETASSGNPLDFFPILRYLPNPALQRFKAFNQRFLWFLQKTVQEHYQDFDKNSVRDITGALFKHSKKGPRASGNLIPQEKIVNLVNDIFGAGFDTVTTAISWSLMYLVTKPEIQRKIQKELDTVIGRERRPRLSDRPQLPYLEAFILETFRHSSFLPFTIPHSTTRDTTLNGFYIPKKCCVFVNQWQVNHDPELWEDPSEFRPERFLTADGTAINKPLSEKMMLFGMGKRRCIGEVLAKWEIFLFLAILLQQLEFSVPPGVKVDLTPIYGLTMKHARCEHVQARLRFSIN
# AC50 annotations

INSERT INTO measurements (compound, tested_system, experimental_endpoint, result) VALUES
  ('CON(c1nc(N(C)C)nc(N(C)C)n1)S(=O)(=O)c1ccccc1Cl', 'Cytochrome P450 1A2 (Homo sapiens, UniProt P05177)', 'AC50', '14.1 µM (inconclusive)'),
  ('c1cc(C2N3CCCN2CC3)ccn1 (configuration not stated)', 'Cytochrome P450 1A2 (Homo sapiens, UniProt P05177)', 'AC50', '1.26 µM (inconclusive)'),
  ('C[C@@H](C(=O)Nc1ccc2ccccc2c1)[C@H]1C[C@]1(C)[C@H](NC(=O)c1cnccn1)c1ccccc1', 'Cytochrome P450 1A2 (Homo sapiens, UniProt P05177)', 'AC50', '25.1 µM (inconclusive)'),
  ('COc1ccc(Sc2nc3ccccc3n3c(C(F)(F)F)nnc23)cc1', 'Cytochrome P450 1A2 (Homo sapiens, UniProt P05177)', 'AC50', '3.16 µM (inconclusive)'),
  ('O=[N+]([O-])c1cccnc1N1CCOCC1', 'Cytochrome P450 1A2 (Homo sapiens, UniProt P05177)', 'AC50', '28.2 µM (inconclusive)');

Incoming: Look up AC50 with Cytochrome P450 1A2 (Homo sapiens, UniProt P05177) for this compound: `O=c1cnc2cncnc2n1Cc1ccccc1Cl`
Outgoing: 15.8 µM (inconclusive)

Incoming: How about this compound: `Cc1cc(C)n(C(=O)CCCCCCCCC(=O)n2nc(C)cc2C)n1`
Outgoing: 15.8 µM (inconclusive)

Incoming: Same question for `O=C1/C(=C\c2ccccc2)C[C@@]2(O)[C@H]3Cc4ccc(O)c5c4[C@@]2(CCN3CC2CC2)[C@@H]1O5` please.
Outgoing: 31.6 µM (inconclusive)

Incoming: `O=C(O)c1ccccc1C(=O)NNc1ccc(F)cc1` ?
Outgoing: 20 µM (inconclusive)

Incoming: Would you mind doing `O=C(c1cnccn1)N1CCC2(CC1)CN(C(c1ccccc1)c1ccccc1)C2` as well?
Outgoing: 25.1 µM (inconclusive)

Incoming: Now the same for `Cc1ccc(Cn2nc(C)c(NC(=O)c3cc(-c4ccco4)on3)c2C)cc1`
Outgoing: 39.8 µM (inconclusive)

Incoming: Input `Clc1ccc(Cl)c(OCc2cc(-c3ccccc3Cl)on2)c1`
Outgoing: 0.282 µM (inconclusive)

---

Measured AC50 on Cytochrome P450 1A2 (Homo sapiens) follows.

Recorded AC50, per entry:
INSERT INTO measurements (compound, experimental_endpoint, result) VALUES
  ('CCCOc1ccc(OCCNC2CCCC2)cc1', 'AC50', '14.1 µM (inconclusive)'),
  ('O=C(c1ccncc1)N1CCC2(CC1)CN(c1ncccn1)C2', 'AC50', '6.31 µM (inconclusive)');

Incoming: Dear colleague, I am looking for the recorded AC50 of the following compound: `O=C(O)CCCc1ccc2ccccc2c1`
Outgoing: 3.16 µM (inconclusive)

Incoming: Try this compound too: `O=C(CNC1CCCCCC1)Nc1ccccc1N1CCCCC1`
Outgoing: 14.1 µM (inconclusive)

Incoming: What about `CN1CCN([C@@H]2Cc3ccccc3Sc3ccc(Cl)cc32)CC1` ?
Outgoing: 12.6 µM (inconclusive)

---

test description: Luminescence Cell-Based Dose Response HTS to Identify Activators of Luciferase Translation or Activity in H4 […] Cells. [Related pubchem assays: 1829 (Project Summary), 1814 (Primary HTS)]
Type: functional
Activity calls are given as the source filed them.
experimental endpoint: EC50

# annotated cases, reported EC50 shown
INSERT INTO measurements (compound, experimental_endpoint, result) VALUES
  ('Cn1cc(/C=N\NC(=O)c2cccs2)c2ccccc21', 'EC50', '50.3 µM (active)'),
  ('Cc1c(C(=O)NC(=S)NCC(C)C)oc2ccccc12', 'EC50', '63.2 µM (active)'),
  ('CC(C)c1ccc(NCCC(=O)c2cccs2)cc1', 'EC50', '33.1 µM (active)'),
  ('O=c1sc(/C=N/Nc2ccccc2)c(Cl)n1Cc1ccccc1', 'EC50', '> 120 µM (not active)'),
  ('CCn1nc(-c2ccccc2)nc2c(=O)n(C)c(=O)nc1-2', 'EC50', '> 30 µM (not active)');

Incoming: Query (compound): `Cc1occc1C(=O)N=Nc1c(O)n(C)c2ccccc12` ; field requested: EC50
Outgoing: 0.526 µM (active)

Incoming: For Cc1ccsc1C1Nc2ccccc2-c2nc3ccccc3n21 (configuration not stated) then?
Outgoing: 60.7 µM (active)
